- Test system: P. aeruginosa ATCC27853
- assay.text: Bacterial susceptibility testing (MIC, broth microdilution)
- Format: cell-based
- assay.context: Pseudomonas aeruginosa, ATCC27853, broth microdilution, cation adjusted Mueller-Hinton Broth, 35° C., 18-24 h; read-out: P. aeruginosa ATCC27853 MIC
readout.type: MIC (µg/mL)

| compound | MIC / µg/mL |
| --- | --- |
| C[C@H](O)c1nccn1[C@@H](C#Cc1ccc(-c2ccc(C3CCO3)cc2)cc1)CO (mixture of isomers) [Compound 106] | 4 |
| C[C@H](O)c1nccn1[C@@H](C#Cc1ccc(-c2ccc(O[C@@H]3COC[C@H]3O)cc2Cl)cc1)CO (single isomer, unassigned) [Compound 47] | 4 |
| C[C@H](O)c1nccn1[C@@H](C#Cc1ccc(-c2ccc(OC3(C)COC3)cc2)cc1)CO [Compound 136] | 4 |

(A) CC(=O)N1CC(c2ccc(-c3ccc(C#C[C@@H](CO)n4ccnc4[C@H](C)O)cc3)cc2)C1 [Compound 139]
(B) C[C@H](O)c1nccn1[C@@H](C#Cc1ccc(-c2ccc(NC[C@@H]3COC[C@H]3O)cc2)cc1)CO (racemic) [Compound 69]
# query: argmin of MIC over A and B Pick one; state its label.
B
(B: 2 µg/mL, A: 4 µg/mL)
